- assay.protocol: Local concentrations of penicillin in saliva after topical medication of various doses (Example VII)
- Format: in vivo, human
- measurement.parameters: human, in vivo, topical or ocular, 2 mg topical powder, 6 min; studies 1-3
experimental.endpoint: concentration at 0.1 h (µg/mL)
Answers are plain numbers, in µg/mL.

### Prompt What concentration at 0.1 h value was documented for this molecule, "CC1(C)S[C@@H]2[C@H](NC(=O)Cc3ccccc3)C(=O)N2[C@H]1C(=O)O" ?
### Response 15000

---

- assay.protocol: Local concentrations of penicillin in saliva after penicillin G potassium 50 mg tablet (Example IX)
- Format: in vivo, human
- measurement.parameters: human, saliva, topical or ocular; 50 mg tablet, 20 min
experimental.endpoint: concentration at 20 min

### Prompt What concentration at 20 min value was documented for this compound, "CC1(C)S[C@@H]2[C@H](NC(=O)Cc3ccccc3)C(=O)N2[C@H]1C(=O)O" ?
### Response 120000 to 240000 µg/mL

Values compiled from patent US6248718A.
